molecular target: UniProt:P68400; test: KinaseProfiler off-target kinase profiling; assay type: biochemical; settings: 10 μM, ATP near Km
Sequence (P68400 whole entry): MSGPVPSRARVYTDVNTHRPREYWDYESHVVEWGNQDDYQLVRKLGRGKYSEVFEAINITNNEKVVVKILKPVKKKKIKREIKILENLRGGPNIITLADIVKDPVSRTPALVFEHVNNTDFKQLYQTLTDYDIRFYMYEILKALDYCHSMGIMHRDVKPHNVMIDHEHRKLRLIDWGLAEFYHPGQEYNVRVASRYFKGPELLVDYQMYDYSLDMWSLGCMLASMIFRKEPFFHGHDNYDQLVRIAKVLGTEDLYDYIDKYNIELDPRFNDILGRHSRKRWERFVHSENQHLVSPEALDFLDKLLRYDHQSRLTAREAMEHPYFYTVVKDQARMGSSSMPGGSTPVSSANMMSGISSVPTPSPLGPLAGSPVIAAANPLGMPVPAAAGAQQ
Sequence (P67870 whole entry partner): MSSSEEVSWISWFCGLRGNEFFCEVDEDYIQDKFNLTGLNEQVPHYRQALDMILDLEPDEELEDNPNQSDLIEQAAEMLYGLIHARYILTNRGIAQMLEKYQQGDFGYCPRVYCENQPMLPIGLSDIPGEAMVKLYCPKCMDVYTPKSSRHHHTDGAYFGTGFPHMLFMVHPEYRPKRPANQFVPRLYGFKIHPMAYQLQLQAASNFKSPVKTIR
measurement.kind: Avg. POC (POC)
Express the result in POC but write the number alone.

See these solved cases before continuing.
compound	measured.result
Cc1c(-c2cnn(C)c2)nn(-c2ccccc2)c1NC(=O)N[C@H]1CCCc2ccccc21 [Example 2]	107
Cc1c(-c2ccc(=O)n(C)c2)nn(-c2ccccc2)c1NC(=O)NC1CN(CC(F)(F)F)Cc2ccccc21 (stereo not shown) [Example 26]	110.5
Cc1c(-c2cnn(C)c2)nn(-c2ccccc2)c1NC(=O)NC1CCOc2cc(F)ccc21 (stereo not shown) [Example 12]	98

Here is the next item to consider.
// Avg. POC lookup, key: COCc1ccc2c(c1)C(NC(=O)Nc1c(C)c(-c3cnn(C)c3)nn1-c1ccccc1)COC2 (stereo not shown) [Example 32]
97

====

target: BrSK1 (Homo sapiens (Human)); assay: KinaseProfiler off-target kinase profiling; format: biochemical; details: 10 μM, ATP near Km
Sequence (Q8TDC3 whole entry): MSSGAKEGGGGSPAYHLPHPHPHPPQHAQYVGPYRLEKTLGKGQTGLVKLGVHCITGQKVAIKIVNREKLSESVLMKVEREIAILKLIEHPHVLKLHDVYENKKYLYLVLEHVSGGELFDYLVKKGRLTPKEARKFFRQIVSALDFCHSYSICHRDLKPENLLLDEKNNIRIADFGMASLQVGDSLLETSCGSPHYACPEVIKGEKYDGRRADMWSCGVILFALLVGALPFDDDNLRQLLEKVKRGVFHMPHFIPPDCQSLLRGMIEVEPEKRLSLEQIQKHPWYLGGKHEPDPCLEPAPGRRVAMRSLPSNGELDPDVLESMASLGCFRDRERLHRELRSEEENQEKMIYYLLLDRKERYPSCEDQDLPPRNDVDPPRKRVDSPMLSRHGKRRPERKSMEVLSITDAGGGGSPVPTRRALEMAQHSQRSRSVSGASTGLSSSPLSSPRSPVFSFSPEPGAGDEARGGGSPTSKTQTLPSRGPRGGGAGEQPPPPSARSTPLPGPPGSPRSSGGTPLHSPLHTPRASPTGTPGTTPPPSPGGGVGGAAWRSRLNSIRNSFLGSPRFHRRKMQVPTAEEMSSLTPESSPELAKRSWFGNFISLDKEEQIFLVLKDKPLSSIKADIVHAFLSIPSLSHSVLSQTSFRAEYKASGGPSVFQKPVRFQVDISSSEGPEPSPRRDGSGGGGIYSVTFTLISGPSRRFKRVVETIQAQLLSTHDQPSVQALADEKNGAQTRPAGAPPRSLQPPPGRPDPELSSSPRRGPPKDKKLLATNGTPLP
measurement.kind: Avg. POC
Units required after the number.

// Avg. POC lookup, key: Cc1c(-c2cnn(C)c2)nn(-c2ccccc2)c1NC(=O)N[C@H]1CCCc2ccccc21 [Example 2]
119 POC

// Avg. POC lookup, key: Cc1c(-c2cnn(C)c2)nn(-c2ccccc2)c1NC(=O)NC1CCOc2cc(F)ccc21 (stereo not shown) [Example 12]
111.5 POC

// Avg. POC lookup, key: COCc1ccc2c(c1)C(NC(=O)Nc1c(C)c(-c3cnn(C)c3)nn1-c1ccccc1)COC2 (stereo not shown) [Example 32]
114.5 POC

// Avg. POC lookup, key: Cc1c(-c2ccc(=O)n(C)c2)nn(-c2ccccc2)c1NC(=O)NC1CN(CC(F)(F)F)Cc2ccccc21 (stereo not shown) [Example 26]
105.5 POC

====

# Lookup of reported Avg. POC keyed by entry
molecular target: MAP3K5 (Homo sapiens (Human)); test: KinaseProfiler off-target kinase profiling; assay type: biochemical; details: 10 μM, ATP near Km
Sequence (Q99683 whole entry): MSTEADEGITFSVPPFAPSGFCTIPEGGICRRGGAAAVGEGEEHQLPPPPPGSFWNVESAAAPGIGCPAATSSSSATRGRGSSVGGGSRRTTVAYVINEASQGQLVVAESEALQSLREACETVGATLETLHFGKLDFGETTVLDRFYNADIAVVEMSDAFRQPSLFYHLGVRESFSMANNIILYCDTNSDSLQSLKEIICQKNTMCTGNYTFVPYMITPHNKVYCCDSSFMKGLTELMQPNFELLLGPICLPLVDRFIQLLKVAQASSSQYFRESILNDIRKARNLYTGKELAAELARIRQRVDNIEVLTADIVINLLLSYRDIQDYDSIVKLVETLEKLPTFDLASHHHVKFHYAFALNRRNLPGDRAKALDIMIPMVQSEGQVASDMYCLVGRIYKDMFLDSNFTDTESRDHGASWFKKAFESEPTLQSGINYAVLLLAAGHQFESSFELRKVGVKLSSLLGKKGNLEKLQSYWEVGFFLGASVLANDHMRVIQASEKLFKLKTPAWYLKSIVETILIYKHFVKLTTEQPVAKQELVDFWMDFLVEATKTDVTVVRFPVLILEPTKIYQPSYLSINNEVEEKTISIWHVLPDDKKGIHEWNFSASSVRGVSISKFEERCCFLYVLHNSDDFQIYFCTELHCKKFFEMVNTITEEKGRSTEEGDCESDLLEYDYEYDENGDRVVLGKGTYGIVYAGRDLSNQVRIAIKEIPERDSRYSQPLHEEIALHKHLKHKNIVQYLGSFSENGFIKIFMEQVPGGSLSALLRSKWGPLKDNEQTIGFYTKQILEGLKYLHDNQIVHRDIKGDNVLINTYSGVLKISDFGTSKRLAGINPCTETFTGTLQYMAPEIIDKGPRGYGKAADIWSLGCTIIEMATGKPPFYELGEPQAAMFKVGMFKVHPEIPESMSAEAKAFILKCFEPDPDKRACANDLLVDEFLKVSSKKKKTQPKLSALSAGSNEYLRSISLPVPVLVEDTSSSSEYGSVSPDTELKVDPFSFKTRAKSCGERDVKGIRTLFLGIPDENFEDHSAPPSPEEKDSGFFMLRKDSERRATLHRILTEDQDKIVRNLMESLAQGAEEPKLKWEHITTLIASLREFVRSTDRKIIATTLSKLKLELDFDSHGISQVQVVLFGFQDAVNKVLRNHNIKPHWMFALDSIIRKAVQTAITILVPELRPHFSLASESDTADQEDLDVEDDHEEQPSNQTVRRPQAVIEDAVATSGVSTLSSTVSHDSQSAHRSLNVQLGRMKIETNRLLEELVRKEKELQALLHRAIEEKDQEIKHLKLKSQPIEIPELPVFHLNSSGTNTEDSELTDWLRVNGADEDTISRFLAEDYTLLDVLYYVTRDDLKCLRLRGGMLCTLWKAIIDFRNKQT
Express the result in POC but write the number alone.

See these solved cases before continuing.
compound	units.label	Avg. POC
COCc1ccc2c(c1)C(NC(=O)Nc1c(C)c(-c3cnn(C)c3)nn1-c1ccccc1)COC2 (stereo not shown) [Example 32]	POC	116
Cc1c(-c2ccc(=O)n(C)c2)nn(-c2ccccc2)c1NC(=O)NC1CN(CC(F)(F)F)Cc2ccccc21 (stereo not shown) [Example 26]	POC	116.5
Cc1c(-c2cnn(C)c2)nn(-c2ccccc2)c1NC(=O)N[C@H]1CCCc2ccccc21 [Example 2]	POC	105

Here is the next item to consider.
// Avg. POC lookup, key: Cc1c(-c2cnn(C)c2)nn(-c2ccccc2)c1NC(=O)NC1CCOc2cc(F)ccc21 (stereo not shown) [Example 12]
111

====

# Lookup of reported Avg. POC keyed by entry
biological target: UniProt Q02156; experiment: KinaseProfiler off-target kinase profiling; format: biochemical; conditions: 10 μM, ATP near Km
Sequence (Q02156 whole entry): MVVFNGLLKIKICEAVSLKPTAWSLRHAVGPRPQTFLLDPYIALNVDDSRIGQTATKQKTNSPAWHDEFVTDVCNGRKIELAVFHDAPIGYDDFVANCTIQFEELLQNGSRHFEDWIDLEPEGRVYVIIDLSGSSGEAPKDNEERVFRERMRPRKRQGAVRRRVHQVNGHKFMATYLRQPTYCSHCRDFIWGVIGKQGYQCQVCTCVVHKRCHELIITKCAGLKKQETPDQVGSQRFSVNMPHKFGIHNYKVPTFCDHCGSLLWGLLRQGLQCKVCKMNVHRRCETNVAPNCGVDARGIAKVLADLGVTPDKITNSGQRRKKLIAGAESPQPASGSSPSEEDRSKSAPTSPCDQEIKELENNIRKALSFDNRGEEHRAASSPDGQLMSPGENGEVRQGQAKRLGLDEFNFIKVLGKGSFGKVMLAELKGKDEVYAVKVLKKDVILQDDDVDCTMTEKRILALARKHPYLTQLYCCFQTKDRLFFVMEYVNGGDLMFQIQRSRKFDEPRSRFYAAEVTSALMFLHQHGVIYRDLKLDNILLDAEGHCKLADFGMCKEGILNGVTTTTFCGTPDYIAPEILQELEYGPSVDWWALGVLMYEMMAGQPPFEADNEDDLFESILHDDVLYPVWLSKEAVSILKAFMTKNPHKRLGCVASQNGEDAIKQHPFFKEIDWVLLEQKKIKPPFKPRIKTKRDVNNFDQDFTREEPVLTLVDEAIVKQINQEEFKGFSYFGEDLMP
Express the result in POC but write the number alone.

See these solved cases before continuing.
molecule	measured.result
Cc1c(-c2cnn(C)c2)nn(-c2ccccc2)c1NC(=O)N[C@H]1CCCc2ccccc21 [Example 2]	101.5
Cc1c(-c2ccc(=O)n(C)c2)nn(-c2ccccc2)c1NC(=O)NC1CN(CC(F)(F)F)Cc2ccccc21 (stereo not shown) [Example 26]	106.5
Cc1c(-c2cnn(C)c2)nn(-c2ccccc2)c1NC(=O)NC1CCOc2cc(F)ccc21 (stereo not shown) [Example 12]	97.5

Here is the next item to consider.
// Avg. POC lookup, key: COCc1ccc2c(c1)C(NC(=O)Nc1c(C)c(-c3cnn(C)c3)nn1-c1ccccc1)COC2 (stereo not shown) [Example 32]
97.5
